assay_system: αvβ3 receptor (αvβ3 from human A375 cells) (Homo sapiens, UniProt P05106+P06756)
Construct: αvβ3 from human A375 cells was purified analogously to a procedure which was described by Wong et al; endogenous in cells; host or cells: human A375 cells; the receptor was purified from the cells and used detergent-solubilised (n-octyl-glucopyranoside)
Sequence (P06756 31-889 limits assumed): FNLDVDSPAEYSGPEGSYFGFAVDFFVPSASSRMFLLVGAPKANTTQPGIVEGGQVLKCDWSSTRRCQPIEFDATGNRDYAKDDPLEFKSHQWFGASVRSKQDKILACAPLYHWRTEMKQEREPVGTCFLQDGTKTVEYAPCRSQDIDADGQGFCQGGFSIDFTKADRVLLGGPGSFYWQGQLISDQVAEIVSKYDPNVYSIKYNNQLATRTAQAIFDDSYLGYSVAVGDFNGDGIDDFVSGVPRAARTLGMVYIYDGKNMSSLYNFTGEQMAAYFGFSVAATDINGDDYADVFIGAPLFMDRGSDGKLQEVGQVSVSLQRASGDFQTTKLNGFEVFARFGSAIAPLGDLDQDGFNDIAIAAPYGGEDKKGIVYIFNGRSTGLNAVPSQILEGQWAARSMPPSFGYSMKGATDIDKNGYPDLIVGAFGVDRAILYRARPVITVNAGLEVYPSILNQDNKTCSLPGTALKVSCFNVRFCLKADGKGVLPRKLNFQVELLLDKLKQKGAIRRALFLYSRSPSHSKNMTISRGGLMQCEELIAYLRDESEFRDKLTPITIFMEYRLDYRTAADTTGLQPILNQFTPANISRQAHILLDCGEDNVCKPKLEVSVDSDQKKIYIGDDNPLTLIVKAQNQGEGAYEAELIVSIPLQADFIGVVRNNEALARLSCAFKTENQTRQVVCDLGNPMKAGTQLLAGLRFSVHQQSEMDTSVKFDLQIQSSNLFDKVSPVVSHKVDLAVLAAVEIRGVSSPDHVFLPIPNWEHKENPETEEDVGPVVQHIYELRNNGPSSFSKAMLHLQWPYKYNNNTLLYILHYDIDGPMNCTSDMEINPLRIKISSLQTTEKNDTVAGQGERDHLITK
Sequence (P06756 891-1048 partner limits assumed): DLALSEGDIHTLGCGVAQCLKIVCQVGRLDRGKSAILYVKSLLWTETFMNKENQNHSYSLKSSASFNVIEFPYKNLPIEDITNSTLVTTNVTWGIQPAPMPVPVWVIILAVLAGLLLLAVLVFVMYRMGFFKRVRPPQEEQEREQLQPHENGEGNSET
Sequence (P05106 27-788): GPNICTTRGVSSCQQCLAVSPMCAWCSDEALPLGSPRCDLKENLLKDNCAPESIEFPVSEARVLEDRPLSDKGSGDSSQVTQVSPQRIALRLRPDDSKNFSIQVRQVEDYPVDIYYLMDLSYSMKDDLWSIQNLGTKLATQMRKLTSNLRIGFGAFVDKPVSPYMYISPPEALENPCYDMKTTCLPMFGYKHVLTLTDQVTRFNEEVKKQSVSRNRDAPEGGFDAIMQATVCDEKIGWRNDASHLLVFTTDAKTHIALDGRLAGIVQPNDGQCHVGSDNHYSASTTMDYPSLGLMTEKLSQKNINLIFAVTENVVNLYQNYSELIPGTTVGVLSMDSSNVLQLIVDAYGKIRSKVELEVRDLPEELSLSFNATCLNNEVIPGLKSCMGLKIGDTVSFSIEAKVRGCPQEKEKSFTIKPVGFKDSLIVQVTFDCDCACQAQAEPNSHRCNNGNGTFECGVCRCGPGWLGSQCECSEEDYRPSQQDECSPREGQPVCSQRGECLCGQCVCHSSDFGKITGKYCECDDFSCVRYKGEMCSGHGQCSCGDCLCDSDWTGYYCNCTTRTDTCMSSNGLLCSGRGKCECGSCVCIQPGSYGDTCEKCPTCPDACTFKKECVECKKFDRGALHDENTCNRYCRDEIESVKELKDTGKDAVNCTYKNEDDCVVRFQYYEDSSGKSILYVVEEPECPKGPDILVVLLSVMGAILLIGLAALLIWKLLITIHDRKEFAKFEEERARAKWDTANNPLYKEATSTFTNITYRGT
method: αvβ3 binding test (echistatin displacement, WGA SPA beads)
experimental_parameters: αvβ3 purified from human A375 cells; labelled echistatin; read-out: IC50 values of the binding to the αvβ3 receptor
Recorded pIC50 by entry
Worth noting: pIC50 values are minus log10 of concentrations stated in mol/L.

Completed entries (count: 8):
* CCCNC(=O)Nc1cccc(S(=O)(=O)Nc2cccc(C(CC(=O)O)NC(=O)CCCC(=O)NCC(=O)N[C@@H](CC(C)C)C(=O)O[C@]3(CC)C(=O)OCc4c3cc3n(c4=O)Cc4cc5ccccc5nc4-3)c2)c1 (stereo partly drawn) | 6.58
* CCCNC(=O)Nc1cccc(S(=O)(=O)Nc2cccc(C(CC(=O)O)NC(=O)CCCC(=O)N[C@@H](CC(C)C)C(=O)NCC(=O)N[C@@H](CC(C)C)C(=O)O[C@]3(CC)C(=O)OCc4c3cc3n(c4=O)Cc4cc5ccccc5nc4-3)c2)c1 (stereo partly drawn) | 6.26
* CC[C@@]1(O)C(=O)OCc2c1cc1n(c2=O)Cc2cc3c(NC(=S)NC(CC(=O)O)c4cccc(NS(=O)(=O)c5cccc(NC(=N)N)c5)c4)cccc3nc2-1 (stereo partly drawn) | 7.18
* CCCNC(=O)Nc1cccc(-c2ccc(CC(NC(=S)Nc3cccc4nc5c(cc34)Cn3c-5cc4c(c3=O)COC(=O)[C@]4(O)CC)C(=O)O)cc2)c1 (stereo partly drawn) | 7.21
* CCC1(OC(=O)[C@@H](NC(=O)Nc2cccc(-c3ccc(S(=O)(=O)NC(CC(=O)O)c4ccccc4)cc3)c2)C(C)C)C(=O)OCc2c1cc1n(c2=O)Cc2cc3ccccc3nc2-1 (stereo partly drawn) | 6.90
* CC[C@@]1(OC(=O)C(NC(=O)C(CCCCN)NC(=S)Nc2cccc(-c3ccc(C[C@H](NS(=O)(=O)CC45CCC(CC4=O)C5(C)C)C(=O)O)cc3)c2)C(C)C)C(=O)OCc2c1cc1n(c2=O)Cc2cc3ccccc3nc2-1 (stereo partly drawn) | 6.72
* CCCNC(=O)Nc1cccc(S(=O)(=O)Nc2cccc(C(CC(=O)O)NC(=O)CCCC(=O)NCC(=O)N[C@@H](CC(C)C)C(=O)N[C@H](C(=O)O[C@]3(CC)C(=O)OCc4c3cc3n(c4=O)Cc4cc5ccccc5nc4-3)C(C)C)c2)c1 (stereo partly drawn) | 6.27
* CCCNC(=O)Nc1cccc(-c2ccc(CC(NS(=O)(=O)c3cccc(NC(=S)N[C@@H](Cc4c[nH]cn4)C(=O)N[C@H](C(=O)O[C@]4(CC)C(=O)OCc5c4cc4n(c5=O)Cc5cc6ccccc6nc5-4)C(C)C)c3)C(=O)O)cc2)c1 (stereo partly drawn) | 6.81

## Task Provide value of pIC50 for this record tested with αvβ3 receptor (αvβ3 from human A375 cells) (Homo sapiens, UniProt P05106+P06756): CCCNC(=O)Nc1cccc(S(=O)(=O)Nc2cccc(C(CC(=O)O)NC(=S)Nc3cccc4nc5c(cc34)Cn3c-5cc4c(c3=O)COC(=O)[C@]4(O)CC)c2)c1 (stereo partly drawn)
## Result 7.29
